- System: Candida albicans
- test_protocol: Antifungal activity against Candida albicans NR-29448 after 44 hrs by broth dilution assay
- Type: functional
- test_conditions: NR-29448, 44 h
Some compounds, each annotated with its measured MIC.
Give the value, in units of µM, as a plain number.

## Input Entry Nc1ccccc1/C=C/c1ccccc1 : reported MIC = ?
## Output 64

## Input Entry N#Cc1ccccc1/C=C/c1ccc(F)cc1 : reported MIC = ?
## Output 64

## Input Entry C/C(=C\c1ccccc1C#N)c1ccccc1 : reported MIC = ?
## Output 8

## Input Entry COc1cccc(/C=C/c2ccccc2C#N)c1 : reported MIC = ?
## Output 16

---

- Test system: Candida albicans
- test_protocol: Antifungal activity against Candida albicans NR-29448 after 44 hrs by broth dilution assay
- Type: functional
- test_conditions: NR-29448, 44 h
assay_readout: MIC (µM)
Give the value, in units of µM, as a plain number.

// solved cases for MIC follow
N#Cc1cccc(/C=C/c2ccccc2)c1 :: 4
N#Cc1ccccc1/C=C/c1ccc([N+](=O)[O-])cc1 :: 8
N#Cc1ccccc1-c1ccccc1 :: 0.5
COc1ccc(/C=C/c2ccccc2C#N)cc1 :: 1
OC(Cn1cncn1)(Cn1cncn1)c1ccc(F)cc1F [FLUCONAZOLE] :: 0.5

## Input Entry CCCCc1ccc(/C=C/c2ccccc2C#N)cc1 : reported MIC = ?
## Output 8

## Input Entry N#Cc1ccccc1C=C1CCCCC1 : reported MIC = ?
## Output 4

## Input Entry N#Cc1ccc(/C=C/c2ccccc2)cc1 : reported MIC = ?
## Output 2

---

Some molecules, each annotated with its measured MIC.
- Test system: Candida albicans
- test_protocol: Antifungal activity against Candida albicans NR-29448 after 44 hrs by broth dilution assay
- Assay type: functional
- test_conditions: NR-29448, 44 h

// solved cases for MIC follow
N#Cc1ccccc1/C=C/c1ccccc1 :: > 64 µM
CC/C(=C\c1ccccc1C#N)c1ccc(OC)cc1 :: > 64 µM

// next item, MIC requested
## Input Entry CC/C(=C\c1ccccc1)c1ccccc1 : reported MIC = ?
## Output > 64 µM

Provenance of the data: ChEMBL document CHEMBL4020705
